Source listed as a protein production outcome set (Wang et al. 2014).

Assay: label from the status in PepcDB records
quantity_name: protein production

1) SLENERLIKMSRFSERGYVVRENGPVYFTKDMDKTVKWFEEILGWSGDIVARDDEGFGDYGCVFDYPSEVAVAHLTPFRGFHLFKGEPIKGVAGFMMIEGIDALHKYVKENGWDQISDIYTQPWGARECSITTTDGCILRFFESIQEG	not failed
2) MSLTFPTLSPTQIIQYIHLGSFLNAHNVDYIHNNNISSILLVGIEVPSLFKDQCDILRLDIVSEEGHQLYDSIPNAIKFIIRSIQRKEGVLIISGTGVNKAPAIVIAFLMYYQRLSFINAFNKVQGLYPLIDIESGFILQLKLFEKKLEKMNSEGHHHHHH	not failed
